Catalogue of IC50 readings, one per entry.
test: Immunosuppressive activity against […] mouse CD4-positive T cells assessed as inhibition of CD3/CD28-induced cell proliferation
Give the quantity in ng/mL, number only.

Here are 3 compounds together with their reported answers.
| COMPOUND | OBSERVED RESULT |
| --- | --- |
| C=CC[C@@H]1/C=C(\C)C[C@H](C)C[C@H](OC)[C@H]2O[C@@](O)(C(=O)C(=O)N3CCCC[C@H]3C(=O)O[C@H](/C(C)=C/[C@@H]3CC[C@@H](O)[C@H](OC)C3)[C@H](C)[C@@H](O)CC1=O)[C@H](C)C[C@@H]2OC [TACROLIMUS ANHYDROUS] | 0.027 |
| C=CC[C@@H]1/C=C(\C)C[C@H](C)C[C@H](OC)[C@H]2O[C@@](O)(CC(=O)N3CCCC[C@H]3C(=O)O[C@H](/C(C)=C/[C@@H]3CC[C@@H](O)[C@H](OC)C3)[C@H](C)[C@@H](O)CC1=O)[C@H](C)C[C@@H]2OC | 0.513 |
| C=CC[C@@H]1/C=C(\C)C[C@H](C)C[C@H](OC)[C@H]2O[C@@](O)(C(=O)C(=O)N3CCCC[C@H]3C(=O)O[C@H](/C(C)=C/[C@@H]3CC[C@@H](O)[C@H](O)C3)[C@H](C)[C@@H](O)CC1=O)[C@H](C)C[C@@H]2OC | 0.246 |

Now turn to the next compound.
Exercise: Item under review: C=CC[C@@H]1/C=C(\C)C[C@H](C)C[C@H](OC)[C@H]2O[C@@](O)(CC(=O)N3CCCC[C@H]3C(=O)O[C@H](/C(C)=C/[C@@H]3CC[C@@H](O)[C@H](O)C3)[C@H](C)[C@@H](O)CC1=O)[C@H](C)C[C@@H]2OC . Reported IC50?
Solution: 15.1
